- Test system: rice plant “Nihonbare”
- experiment: Test 11: production of Sakuranetin and Momilactone-A in wounded rice blades treated with L-cysteine/D-glucose and comparative solutions
- run-conditions: rice fifth blades, 25 μl test solution on 1 mm cuts, 60 hours at 25° C. under light

{"columns": ["compound", "Amount of Momilactone-A"],
 "data": [
  ["O=C[C@H](O)[C@@H](O)[C@H](O)[C@H](O)CO", "not detected"],
  ["N.N.O=S(=O)(O)O [Section AS1, Ammonium sulfate]", "not detected"],
  ["N[C@@H](CCC(=O)N[C@@H](CS)C(=O)NCC(=O)O)C(=O)O", "not detected"],
  ["N[C@@H](CS)C(=O)O", "38.99 ng/spot"]
]}
